System: RARg homodimer (NR concentration 270 nM)
PROCEDURE DETAILS: PBM binding z-score (relative to random genomic background probes); higher = stronger binding; sequences stand for … in GC…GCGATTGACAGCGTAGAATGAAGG
Kindly return Fulfilled if reported PBM binding z-score is no lower than 4; return Not fulfilled if it is lower.

RECORD SEQUENCE: ATATGTAGGTGATCGGGTCATTCAGTTTGCGCAT
GROUP LABEL: Not fulfilled
--
RECORD SEQUENCE: AGATGTAGGTTACATCCGGGTCATTCAGGCTATG
GROUP LABEL: Not fulfilled
--
RECORD SEQUENCE: TCGAGTAGGTTACCAATGGGGCATGCAGCTTTCT
GROUP LABEL: Not fulfilled
--
RECORD SEQUENCE: CCTCACGGGTCACGAGGTTATAGCACGACGAGCG
GROUP LABEL: Fulfilled
--
RECORD SEQUENCE: TCTATTTGGTCACGGAGGTCACACACGACGGGTA
GROUP LABEL: Fulfilled
--
RECORD SEQUENCE: CCTACTGTGCCACGAAAGGTCATTGATTCAGTGA
GROUP LABEL: Not fulfilled
--
RECORD SEQUENCE: CCTAGTTGGTTAAGGTCACACACGCTATAGGTAC
GROUP LABEL: Fulfilled
--
RECORD SEQUENCE: CGTCAAAGTTCAACTAAGGCAACGTAAAGCACGC
GROUP LABEL: Fulfilled
--
RECORD SEQUENCE: TAGCCTAGGTCAGTGGGCCAGTATAGTACGCATC
GROUP LABEL: Not fulfilled
--
RECORD SEQUENCE: TAGCCTAGGTTAGATCGGGCCAGTATACGCTATA
GROUP LABEL: Not fulfilled
--
RECORD SEQUENCE: TCTCGGAGGACACGAAGTTCAGAGCTTTCCAGAG
GROUP LABEL: Not fulfilled
--
RECORD SEQUENCE: AGTCAAAGTTCACTAGGTAACGTAGGATTCAGCT
GROUP LABEL: Fulfilled
--
RECORD SEQUENCE: AGTCAAAGTTCAGGACGAGGTAACGTGAAGCACG
GROUP LABEL: Fulfilled
--
RECORD SEQUENCE: AGTCAAAGTTCACTAGGTAACGTGAGATTCAGCT
GROUP LABEL: Fulfilled
--
RECORD SEQUENCE: ACTAGCAGGCCAAGTTAGGGTCACTCAAACAAAG
GROUP LABEL: Not fulfilled
--
RECORD SEQUENCE: ACACACAGGTGATGAAGGTAACTCAGGCTATCAT
GROUP LABEL: Not fulfilled
--
RECORD SEQUENCE: ATATGTAAGTTATCGGGTCATTCAGTTTGCGCAT
GROUP LABEL: Not fulfilled
--
RECORD SEQUENCE: TCATATGGGTAAATGCTAGGTGAAAGTCCGATCT
GROUP LABEL: Not fulfilled
--
RECORD SEQUENCE: CCTCGGAGGACAACAGGAGGTCAGAGCCGCCAGA
GROUP LABEL: Not fulfilled
--
RECORD SEQUENCE: ACTCTTAGTTGAGACGAGGGCAACCGATAGGTTG
GROUP LABEL: Not fulfilled
--
RECORD SEQUENCE: TGTATGAGGTTATAAGATCAGGGAACGTTGCAAA
GROUP LABEL: Not fulfilled
--
RECORD SEQUENCE: TCTTCTAGATCAACAGGAGGTTAAGAAAGATCGA
GROUP LABEL: Not fulfilled
--
RECORD SEQUENCE: TTTTGTAGATCAACAGGAGGTTAAGAAAGATCGA
GROUP LABEL: Not fulfilled
--
RECORD SEQUENCE: CCTGCTAGGTCATGGTAAGCTAATCTACAGTATG
GROUP LABEL: Fulfilled
--
RECORD SEQUENCE: CAAACTAGGTCAATAGGTCAAAGTCCGCTTCCCG
GROUP LABEL: Fulfilled
--
RECORD SEQUENCE: ACTAGCAGGCCAAGGGTCATTCAAGATTAGTCCG
GROUP LABEL: Not fulfilled

====

Tested on: PPARg DBDmut IVT, anti-PPARg (DBD mutation: PPARg1 K132A/R137A, NR concentration 270 nM)
PROCEDURE DETAILS: PBM binding z-score (relative to random genomic background probes); higher = stronger binding; sequences stand for … in GC…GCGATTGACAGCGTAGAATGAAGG

RECORD SEQUENCE: GATACAGGGTCACGGCCAGAGTACGCGTATTGAT
PBM binding z-score: 0.362
--
RECORD SEQUENCE: ATCGAAAGGTCGACGAGGTGAGGATACACCGTTT
PBM binding z-score: 0.42
--
RECORD SEQUENCE: GCTGCTACGTCAACTGATGGTCAGCTAAAGCTCG
PBM binding z-score: -1.06
--
RECORD SEQUENCE: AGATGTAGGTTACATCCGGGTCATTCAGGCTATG
PBM binding z-score: 1.29
--
RECORD SEQUENCE: TCAGACTGGTGAAGGTAACTCAGGTACGCAGTCG
PBM binding z-score: -0.759
--
RECORD SEQUENCE: CAAGCTAGGTCACGAAAGGTCAAAGTCGAATGAC
PBM binding z-score: -0.0947
--
RECORD SEQUENCE: TAGCCTACGTCATGCGGGCCAGTATAGTGTCGGC
PBM binding z-score: -0.82
--
RECORD SEQUENCE: TCTAGGAGGCCAGAGGGTCACTCAAGAGGTACGG
PBM binding z-score: -0.364
--
RECORD SEQUENCE: CGAACTACGTCAAGGACAGTGAATCTCCGCACGC
PBM binding z-score: -0.387
--
RECORD SEQUENCE: TAGCCTAGGTCATGCGGGCCAGTAAAGTGTCGGC
PBM binding z-score: -0.0156
--
RECORD SEQUENCE: TCATATAGGTAAATGCTAGGTCAAAGTCCGATCT
PBM binding z-score: 1.99
--
RECORD SEQUENCE: TCTTGTAGATCAGCAGGTTAGGAAAGCTGGCCAA
PBM binding z-score: -0.926
--
RECORD SEQUENCE: CAAACTAGGTCAAAGCTCAAAGTCGAGCCAACCA
PBM binding z-score: 0.922
--
RECORD SEQUENCE: CCTTACGGGTCACTGACAGTTTATAGCATTTGGA
PBM binding z-score: 0.36
--
RECORD SEQUENCE: CCTTACGGGTCACTGACAGGTTATACCATTTGGA
PBM binding z-score: 0.106
--
RECORD SEQUENCE: TAGCGTAGGTCATTGGGCCAGTATAGTACGCATC
PBM binding z-score: -0.343
--
RECORD SEQUENCE: CGTCCAAGGACAAAGGTCAGTGAAGAGATGACGG
PBM binding z-score: -0.214
--
RECORD SEQUENCE: CAGCCTAGGTCAGTGCCAGTATAGGAGGAACGTT
PBM binding z-score: -1.02
--
RECORD SEQUENCE: GCGAGTTGGTCAGTAAAAGGTCACACACCGGTCG
PBM binding z-score: -0.184
--
RECORD SEQUENCE: TCTGGTAGGTCAGTTGGTCAGCTAACGAGCTGCC
PBM binding z-score: -0.0633
--
RECORD SEQUENCE: CCTACTGCGCCATCAGGTCATTGATATCAACGTT
PBM binding z-score: 0.364
--
RECORD SEQUENCE: CGTCCAAGGTCATAGGAGCTCAGTGAAGACAGAT
PBM binding z-score: -0.573
--
RECORD SEQUENCE: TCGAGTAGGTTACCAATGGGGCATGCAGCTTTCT
PBM binding z-score: -0.804
--
RECORD SEQUENCE: GCTTGTAGATCAAGTTTAAGAAAGACTAAGCTAA
PBM binding z-score: 0.223
--
RECORD SEQUENCE: ACAGACAGGTGCGTGAAGGTAACTCAGCTGGACG
PBM binding z-score: -0.077
--
RECORD SEQUENCE: CATTACGGGTCAAGGTTATAGCACGGGTGGTACG
PBM binding z-score: 1.08

====

Test system: VDR:RXRa (NR concentration 270 nM, RXRa partner concentration 90 nM)
PROCEDURE DETAILS: PBM binding z-score (relative to random genomic background probes); higher = stronger binding; sequences stand for … in GC…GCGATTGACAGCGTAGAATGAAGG
Measured PBM binding z-score determines class: range 1: < 0.7; range 2: ≥ 0.7 and < 2; range 3: ≥ 2

RECORD SEQUENCE: CGTCAAAGTTCAACTAAGCTAACGTAAAGCACGC
GROUP LABEL: range 3
--
RECORD SEQUENCE: GCTCGGAGGACAAGGTCAGAACTTTGTCCGTAGA
GROUP LABEL: range 2
--
RECORD SEQUENCE: CCGACTGGAGCAAAGGTTACCATACTCAGTACGA
GROUP LABEL: range 2
--
RECORD SEQUENCE: AGTCAAAGATCATCTAGGTAACGTAAGATATGCT
GROUP LABEL: range 1
--
RECORD SEQUENCE: TCTTATAGGTAAAGGTGAAAGTCGAACGATATGA
GROUP LABEL: range 2
--
RECORD SEQUENCE: CTCTAAAGGTCGGTTGAGGTGAGTATACGGATAA
GROUP LABEL: range 3
--
RECORD SEQUENCE: CCGACTGGGGCATAAGGTTACCATCAGCCAGCCC
GROUP LABEL: range 1
--
RECORD SEQUENCE: TTACCAAGGTGAAGGTCGTTGAACCCTCTGTAGA
GROUP LABEL: range 3
--
RECORD SEQUENCE: TCATATAGGTAATACAGGTGAACGTCGGCATCTA
GROUP LABEL: range 2
--
RECORD SEQUENCE: GATACAGGGTCAGCTAGAGGCCATAGTATGGAAA
GROUP LABEL: range 3
--
RECORD SEQUENCE: TCTAGCAGGCCAGAGGGTCGCTCAAGAGGTACGG
GROUP LABEL: range 1
